target: Sodium-dependent dopamine transporter (Homo sapiens)
Sequence (Q01959 whole entry): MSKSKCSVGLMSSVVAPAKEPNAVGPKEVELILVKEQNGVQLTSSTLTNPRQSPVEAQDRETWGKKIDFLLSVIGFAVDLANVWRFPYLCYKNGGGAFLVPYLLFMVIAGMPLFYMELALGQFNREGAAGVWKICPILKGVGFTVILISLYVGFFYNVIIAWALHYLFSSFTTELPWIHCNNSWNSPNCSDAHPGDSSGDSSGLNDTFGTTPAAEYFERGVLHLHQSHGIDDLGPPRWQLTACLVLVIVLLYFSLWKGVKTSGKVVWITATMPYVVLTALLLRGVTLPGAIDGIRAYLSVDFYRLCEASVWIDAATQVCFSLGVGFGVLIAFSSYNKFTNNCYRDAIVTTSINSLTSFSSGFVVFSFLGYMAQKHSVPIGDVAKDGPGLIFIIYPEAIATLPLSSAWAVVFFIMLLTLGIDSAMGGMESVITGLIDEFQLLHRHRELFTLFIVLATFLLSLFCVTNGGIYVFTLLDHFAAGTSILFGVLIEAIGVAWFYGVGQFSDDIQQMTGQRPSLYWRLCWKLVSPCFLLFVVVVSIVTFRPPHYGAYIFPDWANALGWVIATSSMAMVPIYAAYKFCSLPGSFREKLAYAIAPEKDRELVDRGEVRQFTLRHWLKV

MOLECULE	TARGET DESC	Ki / µM
N=c1c2c(-c3ccccc3)c(-c3ccccc3)n(Cc3ccccc3)c2ncn1[C@H]1CC[C@H](O)CC1 [ML-246]	Sodium-dependent dopamine transporter (Homo sapiens)	3.41

---

assay: Microsomal stability in CD1 mouse liver microsomes assessed as half life measured upto 60 mins in presence of NADPH by LC-MS analysis; conditions: CD1, mouse, liver microsomes
RESULT TYPE: half-life at 1 h

SMI	RESULT
Cc1c(C)n(Cc2ccccc2)c2ncn([C@H]3CC[C@H](O)CC3)c(=N)c12	2 h
CN(C)CCCn1cnc2c(c(-c3ccccc3)c(-c3ccccc3)n2Cc2ccccc2)c1=N	2 h
N=c1c2c(-c3ccccc3)c(-c3ccccc3)n(Cc3ccc(OC(F)(F)F)cc3)c2ncn1[C@H]1CC[C@@H](O)CC1	2 h
N=c1c2c(-c3ccccc3)c(-c3ccccc3)n(Cc3ccc(OC(F)(F)F)cc3)c2ncn1[C@H]1CC[C@H](O)CC1	2 h
Cc1c(C)n(Cc2ccccc2)c2ncn(CCCO)c(=N)c12	2 h
COc1ccc(Cn2c(-c3ccccc3)c(-c3ccccc3)c3c(=N)n([C@H]4CC[C@H](O)CC4)cnc32)cc1	2 h
N=c1c2c(-c3ccccc3)c(-c3ccccc3)n(CCc3ccccc3)c2ncn1[C@H]1CC[C@H](O)CC1	2 h
COc1ccc(Cn2c(-c3ccccc3)c(-c3ccccc3)c3c(=N)n(CCO)cnc32)cc1	0.518 h
N=c1c2c(-c3ccccc3)c(-c3ccccc3)n(CCc3ccccc3)c2ncn1CCCCO	0.11 h
N=c1c2c(-c3ccccc3)c(-c3ccccc3)n(Cc3ccccc3)c2ncn1CC1COC1	1.89 h
N=c1c2c(-c3ccccc3)c(-c3ccccc3)n(Cc3ccccc3)c2ncn1[C@H]1CC[C@H](O)CC1	2 h
N=c1c2c3c(n(CCc4ccccc4)c2ncn1CCCO)CCCC3	0.075 h

Values compiled from ChEMBL document CHEMBL5154945.
